Entries annotated with measured half-life
Tested on: human liver microsomes, metabolic stability half-life
Assay: NCATS Human Liver Microsomal (HLM) Stability Profiling
Settings: higher = more stable; screened at 1 µM (by protocol)

- MOLECULE: "OCCN1CCN(CCCN2c3ccccc3C=Cc3ccccc32)CC1"
  half-life: "> 2 h"
- MOLECULE: "Cc1cc(C(C)Nc2ccccc2C(=O)O)c2nc(N3CCOCC3)cc(=O)n2c1 (stereo unspecified)"
  half-life: "> 2 h"
- MOLECULE: "Cc1ccc(-c2nc3ccc(C)cn3c2CC(=O)N(C)C)cc1"
  half-life: "> 2 h"
- MOLECULE: "COCCOc1nc(N)c2[nH]c(=O)n(Cc3ccc(C(=O)O)cc3)c2n1"
  half-life: "> 2 h"
- MOLECULE: "Cn1c(=O)c2c(ncn2CCO)n(C)c1=O"
  half-life: "> 2 h"
- MOLECULE: "O=c1[nH]c(=O)n([C@H]2C[C@H](O)[C@@H](CO)O2)cc1C(F)(F)F"
  half-life: "> 2 h"
- MOLECULE: "CN1CCC(=C2c3ccccc3CCc3cccnc32)CC1"
  half-life: "> 2 h"
- MOLECULE: "Nc1nc2ccccc2n1Cc1ccc(F)cc1"
  half-life: "> 2 h"
- MOLECULE: "CNC(=O)c1ccc(N2C(=S)N(c3cnc(C#N)c(C(F)(F)F)c3)C(=O)C23CCC3)cc1F"
  half-life: "> 2 h"
- MOLECULE: "Cc1nc2c(-c3cnc(N)nc3)nc(N3CCOCC3)nc2n1C(C)C"
  half-life: "> 2 h"
- MOLECULE: "O=C(C=Cc1cccc(S(=O)(=O)Nc2ccccc2)c1)NO"
  half-life: "> 2 h"
